- assay protocol: Solubility test
- Assay type: physicochemical
- recorded conditions: JP 1st fluid, 25 °C, pH 1.2, simulated gastric fluid, kinetic from dmso stock; read-out: JP1
Entry flag: Satisfied if solubility kinetic at 16 h reaches 40 µM; Not satisfied if it does not.

Ask: Would you say C[C@]1(c2cc(NC(=O)c3ccc(F)cn3)ccc2F)N=C(N)O[C@H](CF)[C@@H]1OCC(F)(F)F [Compound I-11] shows solubility kinetic at 16 h at minimum 40 µM?
Reply: Satisfied

Ask: Would you say C[C@]1(c2cc(NC(=O)c3cnc(OCF)cn3)ccc2F)N=C(N)OCC12CC(F)(F)C2 [Compound I-44] shows solubility kinetic at 16 h at minimum 40 µM?
Reply: Not satisfied

Ask: Would you say C[C@]1(c2cc(NC(=O)c3ccc(C#N)cn3)ccc2F)N=C(N)O[C@H]2[C@@H]1OCC2(F)F [Compound I-35] shows solubility kinetic at 16 h at minimum 40 µM?
Reply: Satisfied

Ask: Would you say CO[C@H]1[C@@H](CF)OC(N)=N[C@]1(C)c1cc(NC(=O)c2ncc(Cl)cc2Cl)ccc1Cl [Compound I-22] shows solubility kinetic at 16 h at minimum 40 µM?
Reply: Not satisfied

Ask: Would you say COc1cnc(C(=O)Nc2ccc(F)c([C@@]3(C)N=C(N)S[C@H](C)[C@@H]3F)c2)cn1 [Compound I-8] shows solubility kinetic at 16 h at minimum 40 µM?
Reply: Satisfied

---

- assay protocol: Solubility test
- Assay type: physicochemical
- recorded conditions: JP 1st fluid, pH 1.2, simulated gastric fluid, kinetic from dmso stock; read-out: JP1
- Procedure: A 10 mmol/L solution of the compound was prepared with DMSO, and 2 μL of the compound of the present invention solution was added, respectively, to 198 μL of JP 1st fluid (water was added to 2.0 g of sodium chloride and 7.0 ml, of hydrochloric acid to reach 1000 mL) and JP 2nd fluid (See Table 4). The mixture was left standing for 16 hours at 25° C. or shaken for 1 hour at ruom temperature, and the mixture was vacuum-filtered. […]
value kind: solubility kinetic at 1 h

Summary for this molecule, C[C@H]1SC(N)=N[C@](C)(c2cccc(NC(=O)c3ccc(OCF)cn3)c2)[C@H]1F [Compound I-107] : solubility kinetic at 1 h is 33.5 µM

Summary for this molecule, CC[C@H]1SC(N)=N[C@](C)(c2cc(NC(=O)c3ncc(C#N)cc3C)ccc2F)[C@H]1F [Compound I-68] : solubility kinetic at 1 h is > 50 µM

Summary for this molecule, COCC(F)(F)[C@H]1OC(N)=N[C@](C)(c2cc(NC(=O)c3cnc(OCF)cn3)ccc2F)[C@H]1F [Compound I-79] : solubility kinetic at 1 h is > 50 µM

---

- target entity: Recombinant human BACE1 (Homo sapiens)
- Construct: purchased R&D Systems
- Sequence (P56817 46-501): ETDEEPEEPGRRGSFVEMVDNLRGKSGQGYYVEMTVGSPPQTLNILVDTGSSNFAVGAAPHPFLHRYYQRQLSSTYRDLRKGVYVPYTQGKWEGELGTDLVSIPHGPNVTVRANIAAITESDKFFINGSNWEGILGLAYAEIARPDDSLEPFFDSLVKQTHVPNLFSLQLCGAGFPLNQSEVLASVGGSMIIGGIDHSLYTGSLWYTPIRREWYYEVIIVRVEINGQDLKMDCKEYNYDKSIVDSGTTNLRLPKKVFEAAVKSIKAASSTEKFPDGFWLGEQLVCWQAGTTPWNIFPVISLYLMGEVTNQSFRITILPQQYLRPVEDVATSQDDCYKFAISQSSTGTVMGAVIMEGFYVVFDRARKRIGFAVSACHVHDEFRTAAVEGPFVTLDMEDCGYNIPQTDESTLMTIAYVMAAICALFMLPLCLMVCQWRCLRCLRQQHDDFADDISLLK
- assay protocol: Assay of BACE1 inhibitory activity: 384-well
- Assay type: biochemical
- recorded conditions: Assay format 384-well
Entries get a class label from measured IC50. See ranges: 1 = under 0.01 µM, 2 = from 0.01 µM up to 0.02 µM, 3 = 0.02 µM and over

Ask: Returns: class label. Input: C[C@H]1SC(N)=N[C@](C)(c2cccc(NC(=O)c3ccc(F)cn3)c2)[C@H]1F
Reply: 3

Ask: Returns: class label. Input: COc1ccc(C(=O)Nc2ccc(F)c([C@@]3(C)N=C(N)S[C@H](C)[C@@H]3F)c2)nc1
Reply: 1

Ask: Returns: class label. Input: COc1cnc(C(=O)Nc2ccc(F)c([C@@]3(C)N=C(N)O[C@H](C4(F)CC4)[C@@H]3F)c2)cn1
Reply: 2

Ask: Returns: class label. Input: C[C@H]1SC(N)=N[C@](C)(c2cccc(NC(=O)c3ccc(C#N)cn3)c2)[C@H]1F
Reply: 3

Ask: Returns: class label. Input: C[C@H]1SC(N)=N[C@](C)(c2cc(NC(=O)c3coc(CF)n3)ccc2F)[C@H]1F
Reply: 1

Ask: Returns: class label. Input: C[C@H]1SC(N)=N[C@](C)(c2cc(NC(=O)c3ccc(OCC(F)(F)F)cn3)ccc2F)[C@H]1F
Reply: 2

Ask: Returns: class label. Input: COc1ccc(C(=O)Nc2ccc(F)c([C@@]3(C)N=C(N)O[C@H](C(F)(F)C4CC4)[C@@H]3F)c2)nc1
Reply: 3

Ask: Returns: class label. Input: CC(F)(F)[C@H]1OC(N)=N[C@](C)(c2cc(NC(=O)c3cnc(OCC(F)(F)F)cn3)ccc2F)[C@H]1F
Reply: 2

Ask: Returns: class label. Input: CC[C@H]1SC(N)=N[C@](C)(c2cc(NC(=O)c3ncc(C#N)cc3C)ccc2F)[C@H]1F
Reply: 2

Ask: Returns: class label. Input: CO[C@H]1[C@@H](C)SC(N)=N[C@]1(C)c1cc(NC(=O)c2ccc(F)cn2)ccc1F
Reply: 2

Ask: Returns: class label. Input: C[C@H]1SC(N)=N[C@](C)(c2cc(NC(=O)c3cnc(C(F)F)cn3)ccc2F)[C@H]1F
Reply: 3

Ask: Returns: class label. Input: Cc1cc(C#N)cnc1C(=O)Nc1ccc(F)c([C@@]2(C)N=C(N)SCC23CC(F)(F)C3)c1
Reply: 1

Ask: Returns: class label. Input: C[C@H]1SC(N)=N[C@](C)(c2cc(NC(=O)c3ccc(OCF)cn3)ccc2F)[C@H]1F
Reply: 2

Ask: Returns: class label. Input: COc1ccc(C(=O)Nc2ccc(F)c([C@@]3(C)N=C(N)O[C@H](C4(F)CC4)[C@@H]3F)c2)nc1
Reply: 3

This collection of values is drawn from patent US20170073337A1.
